Cited source: patent KR20180087157A

# Tested on: BLT2-expressing cells [BLT2가 발현된 세포 (CHO-BLT2 cells)]
# test-name: Growth inhibition of BLT2-expressing cells (MTT cell viability)
# Assay type: cell-based
# stated-conditions: 10 μM pretreatment 1 h, then LTB4 300 nM, 24 h; read-out: growth inhibition effect
Each entry gets F if its inhibition at 10 µM stays under 80%, and T if its inhibition at 10 µM is 80% or above.

[[record]]
molecule = "CCCCC(=O)N(CC#Cc1ccc(C(=O)N2CCN(C(C)C)CC2)cc1)c1cccc(F)c1"
category = "T"

[[record]]
molecule = "COc1ccc(-c2ccc(CN(C(C)=O)c3cccc(F)c3)cc2)cc1"
category = "F"

[[record]]
molecule = "CCCCC(=O)N(Cc1ccc(-c2ccc(O)cc2)cc1)c1cccc(C(F)(F)F)c1"
category = "F"

[[record]]
molecule = "CCCCC(=O)N(CC#Cc1ccc(C(=O)NCCN(C)C)cc1)c1ccccc1"
category = "T"

[[record]]
molecule = "CCCCC(=O)N(CC#Cc1ccc(C(=O)NC(C)C(=O)OC)cc1)c1ccccc1 (stereo not drawn)"
category = "F"

[[record]]
molecule = "CCCCC(=O)N(CC#Cc1cccc(C(=O)N2CCNCC2)c1)c1ccccc1"
category = "F"

[[record]]
molecule = "CCCCC(=O)N(CC#Cc1cccc(C(=O)N2CCN(C(C)C)CC2)c1)c1ccccc1"
category = "F"

